# system: PvdQ acyl-homoserine lactone acylase (Pseudomonas aeruginosa LESB58)
# run_description: PvdQ acylase enzyme activity blockers – biochemical, fluorescence, plate reader, dry powder samples, dose response (AID 623951)
# condition_info: purified PvdQ, 4-MU laurate hydrolysis
test_readout: AC50

Record request: AC50 value, item CCCCC(C#N)c1ccc(Cl)cc1 (stereo not drawn)
118 nM

Another: N#CC(c1ccc(C(F)(F)F)cc1)c1cccc(Cl)n1 (stereo not drawn)
287 nM

Another: Cc1ccc(C(C#N)c2ccccc2OC(F)(F)F)nc1C#N (stereo not drawn)
467 nM

Another: N#CC(c1ccc(Cl)cc1)c1ccc(Cl)cn1 (stereo not drawn)
62.8 nM

Another: CCCC(C#N)c1ccc(Cl)cc1 (stereo not drawn)
99.4 nM

Another: N#CC(c1ccc(Cl)cc1)c1cccc(C(F)(F)F)n1 (stereo not drawn)
11.1 nM

Another: N#Cc1ccc(C(C#N)c2ccc(Cl)cc2)nc1 (stereo not drawn)
2660 nM

Another: N#Cc1cccc(C(C#N)c2ccc(Cl)cc2Cl)n1 (stereo not drawn)
380 nM

Another: N#Cc1cccc(C(C#N)c2ccc(Cl)cc2)n1 (stereo not drawn)
138 nM

Another: Cc1ccc(C(C#N)c2ccc(F)cc2)nc1C#N (stereo not drawn)
142 nM

Another: COc1cccc(C(C#N)c2ccc(F)cc2)n1 (stereo not drawn)
240 nM

Another: N#CC(c1ccc(C(F)(F)F)cc1)c1cccc(C(F)(F)F)n1 (stereo not drawn)
43.4 nM

Another: N#CC(c1ccc(F)cc1)c1cccc(C(F)(F)F)n1 (stereo not drawn)
11.7 nM

----------
Field: AC50. Provide a value for each of the compounds that follow.
# system: PvdQ acyl-homoserine lactone acylase (Pseudomonas aeruginosa LESB58)
# run_description: PvdQ acylase enzyme activity blockers – biochemical, fluorescence, plate reader, dry powder samples, dose response (AID 623951)
# condition_info: purified PvdQ, 4-MU laurate hydrolysis

Lab note: need AC50 with PvdQ acyl-homoserine lactone acylase (Pseudomonas aeruginosa LESB58) for entry CC(C#N)(c1ccc(Cl)cc1)c1ccc(C(F)(F)F)cn1 (stereo not given) , please look it up.
5630 nM

Another: CCCCC(C#N)c1ccc(Cl)cc1Cl (stereo not given)
75.6 nM

Another: N#CC(c1cccc(C(F)(F)F)n1)c1ccccc1OC(F)(F)F (stereo not given)
1530 nM

Another: N#CC(c1cccc(Cl)n1)c1ccc(Cl)cc1Cl (stereo not given)
203 nM

Another: CCCCC(C#N)c1ccc(F)cc1 (stereo not given)
20.2 nM

Another: CC(C)CC(C#N)c1ccc(Cl)cc1 (stereo not given)
121 nM

Another: CCCCC(C#N)c1ccccc1OC(F)(F)F (stereo not given)
1300 nM

Another: N#CC(c1ccc(C(F)(F)F)c(Cl)n1)c1ccc(Cl)cc1Cl (stereo not given)
831 nM

Another: N#Cc1ccc(C(C#N)c2ccc(Cl)cc2Cl)nc1 (stereo not given)
2700 nM

Another: N#CC(c1ccc(C(F)(F)F)cc1)c1ccc(C(F)(F)F)c(Cl)n1 (stereo not given)
1390 nM

Another: N#CC(c1ccc(Cl)cc1Cl)c1ncccc1Cl (stereo not given)
279 nM

Another: CCCCC(C#N)c1ccc(Cl)cc1F (stereo not given)
457 nM

Another: N#CC(c1ccc(F)cc1)c1ccc(C(F)(F)F)c(Cl)n1 (stereo not given)
398 nM

Another: CCCCC(C#N)c1ccc(C(F)(F)F)cc1 (stereo not given)
182 nM

Another: N#CC(c1ccc(Cl)cc1)c1ccc(C(F)(F)F)c(Cl)n1 (stereo not given)
414 nM

The values you see were collected from PubChem BioAssay AID623951.
